Data origin: paper PMC5368910

# ASSAY_OVERVIEW: clinical
# PARTICULARS: both, human, plasma, po, 2000 mg
ASSAY_ENDPOINT: Cmax (ng/mL)

[
  {
    "SMILES_ENTRY": "CCCCCc1ccc(/C(C)=C/C(=O)N[C@@H](Cc2c[nH]c3ccccc23)C(=O)N[C@H](CC(N)=O)C(=O)N[C@@H](CC(=O)O)C(=O)N[C@@H]2C(=O)NCC(=O)N[C@@H](CCCN)C(=O)N[C@@H](CC(=O)O)C(=O)N[C@H](C)C(=O)N[C@@H](CC(=O)O)C(=O)NCC(=O)N[C@H](CO)C(=O)N[C@@H]([C@H](C)CC(=O)O)C(=O)N[C@@H](CC(=O)c3ccccc3N)C(=O)O[C@@H]2C)cc1",
    "ASSAY_ENDPOINT": "Cmax",
    "UNIT_SYMBOL": "ng/mL",
    "DATA_VALUE": 66.6
  }
]

###

# ASSAY_OVERVIEW: clinical
# PARTICULARS: both, human, plasma, po, 250 mg, Cmax, MAD, 250 mg BID oral, day 14, LC/MS/MS, median (range)

[
  {
    "SMILES_ENTRY": "CCCCCc1ccc(/C(C)=C/C(=O)N[C@@H](Cc2c[nH]c3ccccc23)C(=O)N[C@H](CC(N)=O)C(=O)N[C@@H](CC(=O)O)C(=O)N[C@@H]2C(=O)NCC(=O)N[C@@H](CCCN)C(=O)N[C@@H](CC(=O)O)C(=O)N[C@H](C)C(=O)N[C@@H](CC(=O)O)C(=O)NCC(=O)N[C@H](CO)C(=O)N[C@@H]([C@H](C)CC(=O)O)C(=O)N[C@@H](CC(=O)c3ccccc3N)C(=O)O[C@@H]2C)cc1",
    "Cmax": "25.5 ng/mL"
  }
]

###

# ASSAY_OVERVIEW: clinical
# PARTICULARS: both, human, plasma, po, 250 mg, AUC0–t, MAD, 250 mg BID oral, day 1, 0 to last measurable concentration, median (range), cohort n = 8

[
  {
    "COMPOUND": "CCCCCc1ccc(/C(C)=C/C(=O)N[C@@H](Cc2c[nH]c3ccccc23)C(=O)N[C@H](CC(N)=O)C(=O)N[C@@H](CC(=O)O)C(=O)N[C@@H]2C(=O)NCC(=O)N[C@@H](CCCN)C(=O)N[C@@H](CC(=O)O)C(=O)N[C@H](C)C(=O)N[C@@H](CC(=O)O)C(=O)NCC(=O)N[C@H](CO)C(=O)N[C@@H]([C@H](C)CC(=O)O)C(=O)N[C@@H](CC(=O)c3ccccc3N)C(=O)O[C@@H]2C)cc1 [surotomycin]",
    "AUC(0-t) (ng·h/mL)": 41.2
  }
]

###

# ASSAY_OVERVIEW: clinical
# PARTICULARS: both, human, plasma, po, 2000 mg

[
  {
    "MOLECULE": "CCCCCc1ccc(/C(C)=C/C(=O)N[C@@H](Cc2c[nH]c3ccccc23)C(=O)N[C@H](CC(N)=O)C(=O)N[C@@H](CC(=O)O)C(=O)N[C@@H]2C(=O)NCC(=O)N[C@@H](CCCN)C(=O)N[C@@H](CC(=O)O)C(=O)N[C@H](C)C(=O)N[C@@H](CC(=O)O)C(=O)NCC(=O)N[C@H](CO)C(=O)N[C@@H]([C@H](C)CC(=O)O)C(=O)N[C@@H](CC(=O)c3ccccc3N)C(=O)O[C@@H]2C)cc1 [surotomycin]",
    "UNIT_SYMBOL": "h",
    "half-life": 16.3
  }
]

###

# ASSAY_OVERVIEW: clinical
# PARTICULARS: both, human, plasma, po, 500 mg, Cmax, MAD, 500 mg BID oral, day 1, LC/MS/MS, median (range), cohort n = 8

[
  {
    "SMILES_ENTRY": "CCCCCc1ccc(/C(C)=C/C(=O)N[C@@H](Cc2c[nH]c3ccccc23)C(=O)N[C@H](CC(N)=O)C(=O)N[C@@H](CC(=O)O)C(=O)N[C@@H]2C(=O)NCC(=O)N[C@@H](CCCN)C(=O)N[C@@H](CC(=O)O)C(=O)N[C@H](C)C(=O)N[C@@H](CC(=O)O)C(=O)NCC(=O)N[C@H](CO)C(=O)N[C@@H]([C@H](C)CC(=O)O)C(=O)N[C@@H](CC(=O)c3ccccc3N)C(=O)O[C@@H]2C)cc1",
    "Cmax": "11 ng/mL"
  }
]

###

# ASSAY_OVERVIEW: clinical
# PARTICULARS: both, human, plasma, po, 1000 mg, Cmax, MAD, 1000 mg BID oral, day 14, LC/MS/MS, median (range)

[
  {
    "SMILES_ENTRY": "CCCCCc1ccc(/C(C)=C/C(=O)N[C@@H](Cc2c[nH]c3ccccc23)C(=O)N[C@H](CC(N)=O)C(=O)N[C@@H](CC(=O)O)C(=O)N[C@@H]2C(=O)NCC(=O)N[C@@H](CCCN)C(=O)N[C@@H](CC(=O)O)C(=O)N[C@H](C)C(=O)N[C@@H](CC(=O)O)C(=O)NCC(=O)N[C@H](CO)C(=O)N[C@@H]([C@H](C)CC(=O)O)C(=O)N[C@@H](CC(=O)c3ccccc3N)C(=O)O[C@@H]2C)cc1",
    "UNIT_SYMBOL": "ng/mL",
    "Cmax": 93.5
  }
]

###

# ASSAY_OVERVIEW: clinical
# PARTICULARS: both, human, plasma, po, 4000 mg
ASSAY_ENDPOINT: AUC(0-t) (ng·h/mL)

[
  {
    "SMILES_ENTRY": "CCCCCc1ccc(/C(C)=C/C(=O)N[C@@H](Cc2c[nH]c3ccccc23)C(=O)N[C@H](CC(N)=O)C(=O)N[C@@H](CC(=O)O)C(=O)N[C@@H]2C(=O)NCC(=O)N[C@@H](CCCN)C(=O)N[C@@H](CC(=O)O)C(=O)N[C@H](C)C(=O)N[C@@H](CC(=O)O)C(=O)NCC(=O)N[C@H](CO)C(=O)N[C@@H]([C@H](C)CC(=O)O)C(=O)N[C@@H](CC(=O)c3ccccc3N)C(=O)O[C@@H]2C)cc1",
    "DATA_VALUE": 2480
  }
]

###

# ASSAY_OVERVIEW: clinical
# PARTICULARS: both, human, plasma, po, 1000 mg

[
  {
    "SMILES_ENTRY": "CCCCCc1ccc(/C(C)=C/C(=O)N[C@@H](Cc2c[nH]c3ccccc23)C(=O)N[C@H](CC(N)=O)C(=O)N[C@@H](CC(=O)O)C(=O)N[C@@H]2C(=O)NCC(=O)N[C@@H](CCCN)C(=O)N[C@@H](CC(=O)O)C(=O)N[C@H](C)C(=O)N[C@@H](CC(=O)O)C(=O)NCC(=O)N[C@H](CO)C(=O)N[C@@H]([C@H](C)CC(=O)O)C(=O)N[C@@H](CC(=O)c3ccccc3N)C(=O)O[C@@H]2C)cc1",
    "Tmax (h)": 10
  }
]

###

# ASSAY_OVERVIEW: clinical
# PARTICULARS: both, human, plasma, po, 500 mg, AUC0–t, MAD, 500 mg BID oral, day 14, 0 to last measurable concentration, median (range)

[
  {
    "COMPOUND": "CCCCCc1ccc(/C(C)=C/C(=O)N[C@@H](Cc2c[nH]c3ccccc23)C(=O)N[C@H](CC(N)=O)C(=O)N[C@@H](CC(=O)O)C(=O)N[C@@H]2C(=O)NCC(=O)N[C@@H](CCCN)C(=O)N[C@@H](CC(=O)O)C(=O)N[C@H](C)C(=O)N[C@@H](CC(=O)O)C(=O)NCC(=O)N[C@H](CO)C(=O)N[C@@H]([C@H](C)CC(=O)O)C(=O)N[C@@H](CC(=O)c3ccccc3N)C(=O)O[C@@H]2C)cc1 [surotomycin]",
    "AUC(0-t) / ng·h/mL": 313
  }
]

###

# ASSAY_OVERVIEW: clinical
# PARTICULARS: both, human, plasma, po, 4000 mg
ASSAY_ENDPOINT: half-life (h)

[
  {
    "COMPOUND": "CCCCCc1ccc(/C(C)=C/C(=O)N[C@@H](Cc2c[nH]c3ccccc23)C(=O)N[C@H](CC(N)=O)C(=O)N[C@@H](CC(=O)O)C(=O)N[C@@H]2C(=O)NCC(=O)N[C@@H](CCCN)C(=O)N[C@@H](CC(=O)O)C(=O)N[C@H](C)C(=O)N[C@@H](CC(=O)O)C(=O)NCC(=O)N[C@H](CO)C(=O)N[C@@H]([C@H](C)CC(=O)O)C(=O)N[C@@H](CC(=O)c3ccccc3N)C(=O)O[C@@H]2C)cc1 [surotomycin]",
    "DATA_VALUE": 14.8
  }
]

###

# ASSAY_OVERVIEW: clinical
# PARTICULARS: both, human, plasma, po, 4000 mg
ASSAY_ENDPOINT: AUC(0-inf) (ng·h/mL)

[
  {
    "COMPOUND": "CCCCCc1ccc(/C(C)=C/C(=O)N[C@@H](Cc2c[nH]c3ccccc23)C(=O)N[C@H](CC(N)=O)C(=O)N[C@@H](CC(=O)O)C(=O)N[C@@H]2C(=O)NCC(=O)N[C@@H](CCCN)C(=O)N[C@@H](CC(=O)O)C(=O)N[C@H](C)C(=O)N[C@@H](CC(=O)O)C(=O)NCC(=O)N[C@H](CO)C(=O)N[C@@H]([C@H](C)CC(=O)O)C(=O)N[C@@H](CC(=O)c3ccccc3N)C(=O)O[C@@H]2C)cc1 [surotomycin]",
    "DATA_VALUE": 2570
  }
]
